B1: NETO1 (parent)
chain: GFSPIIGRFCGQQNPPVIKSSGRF

Variants of: B1
assay.notes: protein stability index of a GFP-peptide fusion (GPS, HEK-293T) (PSI 1-6); higher = more stable;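 also: lentivirally expressed fusions sorted by FACS into six bins by GFP to DsRed ratio, PSI derived from sequencing read proportions per bin multiplied by bin number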
conditions.used: c terminus: a fixed tail appended
Answer n if protein stability index is under 2, and y if it is 2 or more.

[
  {
    "mutation.spec": "F9T",
    "assigned.label": "n"
  },
  {
    "mutation.spec": "V17K",
    "assigned.label": "y"
  },
  {
    "mutation.spec": "R23N",
    "assigned.label": "y"
  },
  {
    "mutation.spec": "Q13I",
    "assigned.label": "y"
  },
  {
    "mutation.spec": "C10V",
    "assigned.label": "y"
  },
  {
    "mutation.spec": "I5D",
    "assigned.label": "y"
  },
  {
    "mutation.spec": "G22W",
    "assigned.label": "y"
  },
  {
    "mutation.spec": "P16G",
    "assigned.label": "n"
  },
  {
    "mutation.spec": "V17D",
    "assigned.label": "y"
  },
  {
    "mutation.spec": "Q12P",
    "assigned.label": "y"
  },
  {
    "mutation.spec": "P16H",
    "assigned.label": "y"
  },
  {
    "mutation.spec": "K19R",
    "assigned.label": "n"
  },
  {
    "mutation.spec": "I5E",
    "assigned.label": "y"
  },
  {
    "mutation.spec": "N14L",
    "assigned.label": "n"
  },
  {
    "mutation.spec": "F24W",
    "assigned.label": "n"
  },
  {
    "mutation.spec": "C10Y",
    "assigned.label": "y"
  },
  {
    "mutation.spec": "P15D",
    "assigned.label": "y"
  },
  {
    "mutation.spec": "C10M",
    "assigned.label": "y"
  },
  {
    "mutation.spec": "F2I",
    "assigned.label": "y"
  },
  {
    "mutation.spec": "I6R",
    "assigned.label": "y"
  },
  {
    "mutation.spec": "I6L",
    "assigned.label": "y"
  },
  {
    "mutation.spec": "R8V",
    "assigned.label": "y"
  },
  {
    "mutation.spec": "I5T",
    "assigned.label": "y"
  },
  {
    "mutation.spec": "S3P",
    "assigned.label": "n"
  },
  {
    "mutation.spec": "N14F",
    "assigned.label": "y"
  },
  {
    "mutation.spec": "G22Y",
    "assigned.label": "y"
  },
  {
    "mutation.spec": "G1T",
    "assigned.label": "n"
  },
  {
    "mutation.spec": "G11N",
    "assigned.label": "y"
  },
  {
    "mutation.spec": "S20K",
    "assigned.label": "y"
  },
  {
    "mutation.spec": "C10P",
    "assigned.label": "y"
  },
  {
    "mutation.spec": "G11P",
    "assigned.label": "y"
  },
  {
    "mutation.spec": "V17C",
    "assigned.label": "n"
  },
  {
    "mutation.spec": "G1N",
    "assigned.label": "n"
  },
  {
    "mutation.spec": "P4K",
    "assigned.label": "y"
  },
  {
    "mutation.spec": "P4N",
    "assigned.label": "n"
  },
  {
    "mutation.spec": "G1K",
    "assigned.label": "y"
  },
  {
    "mutation.spec": "Q12C",
    "assigned.label": "y"
  },
  {
    "mutation.spec": "I18M",
    "assigned.label": "y"
  },
  {
    "mutation.spec": "P15V",
    "assigned.label": "y"
  },
  {
    "mutation.spec": "C10S",
    "assigned.label": "y"
  },
  {
    "mutation.spec": "G1V",
    "assigned.label": "n"
  },
  {
    "mutation.spec": "I6A",
    "assigned.label": "y"
  }
]
